Reported inhibition at 1 µM values for the following compounds.
Biological target: hDGAT1 (Homo sapiens, UniProt O75907)
Construct: made in house; host or cells: Sf9 insect cells (baculovirus); microsomal fraction
Sequence (O75907 whole entry): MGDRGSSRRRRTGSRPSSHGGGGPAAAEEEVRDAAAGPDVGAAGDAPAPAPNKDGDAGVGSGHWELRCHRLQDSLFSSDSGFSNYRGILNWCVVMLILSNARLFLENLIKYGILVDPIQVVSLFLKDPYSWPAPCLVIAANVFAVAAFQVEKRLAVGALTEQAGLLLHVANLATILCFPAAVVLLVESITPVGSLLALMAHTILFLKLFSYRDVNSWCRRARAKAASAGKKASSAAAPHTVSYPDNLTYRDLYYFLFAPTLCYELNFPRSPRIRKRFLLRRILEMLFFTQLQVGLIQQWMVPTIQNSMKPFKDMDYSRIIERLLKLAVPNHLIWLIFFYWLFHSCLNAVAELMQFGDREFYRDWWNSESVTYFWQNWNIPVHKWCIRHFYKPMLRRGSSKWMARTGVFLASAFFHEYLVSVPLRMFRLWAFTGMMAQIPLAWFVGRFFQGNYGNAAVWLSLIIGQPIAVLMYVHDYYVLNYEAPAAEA
Assay: In-vitro DGAT1 assay with hDGAT1 microsomes from Sf9 cells (14C oleoyl CoA, scintillation counting)
Type: biochemical
Details: read-out: Percentage inhibition of hDGAT1

For orientation, consider the following solved cases.
INSERT INTO measurements (compound, measuredquantity, measurement) VALUES
  ('O=C(Nc1ccc(-c2cnc(CNS(=O)(=O)C(F)(F)F)s2)cc1)Nc1ccccc1F', 'inhibition at 1 µM', '> 50%'),
  ('O=C(Nc1ccc(-c2cnc(C3CCN(S(=O)(=O)C(F)(F)F)CC3)s2)cc1)Nc1ccc(F)cc1F', 'inhibition at 1 µM', '20 to 50%'),
  ('O=C(Nc1ccc(-c2cnc(C34CC5CC(CC(C(=O)O)(C5)C3)C4)s2)cc1)Nc1c(F)cccc1F', 'inhibition at 1 µM', '> 50%'),
  ('COc1ccccc1NC(=O)Nc1ccc(-c2cnc(C3CCC(C(=O)O)CC3)o2)cc1 (stereo not shown)', 'inhibition at 1 µM', '20 to 50%'),
  ('CCOc1cc(COC)cc(C(=O)Nc2ccc(-c3cnc(CCC(=O)O)s3)cc2)c1', 'inhibition at 1 µM', '> 50%');

// inhibition at 1 µM lookup, compound = CC(C)(CCc1ncc(-c2ccc(NC(=O)Nc3cc(F)cc(F)c3)cc2)s1)C(=O)O , result: > 50%

Consider O=C(Nc1ccc(-c2cnc(C3CCC(C(=O)O)CC3)s2)cc1)Nc1ccc(F)c(F)c1F (stereo not shown) . Its measured inhibition at 1 µM is > 50%
